Test System: Serine/threonine-protein kinase 24 (Homo sapiens)
Condition Parameters: at 1 µM
Outcome Measure: residual activity (%)
One number for each entry, in %.

Below: 2 compounds and their reported residual activity.
Query Smiles | residual activity [%]
N#Cc1c(NC(=O)c2cccc3ccccc23)sc2c1CCCC2 | 99
CCCCc1c(-c2ccc(OC)cc2)[nH]c2nccnc12 | 70

Now let's try a different one.
GET /value?item= CN(C)S(=O)(=O)c1ccc2c(c1)/C(=C/c1cc3c([nH]1)CCCC3)C(=O)N2 &field=residual activity returns 60

* * *

Test System: High affinity nerve growth factor receptor (Homo sapiens) (UniProt P04629)
Sequence (P04629 33-796 limits assumed): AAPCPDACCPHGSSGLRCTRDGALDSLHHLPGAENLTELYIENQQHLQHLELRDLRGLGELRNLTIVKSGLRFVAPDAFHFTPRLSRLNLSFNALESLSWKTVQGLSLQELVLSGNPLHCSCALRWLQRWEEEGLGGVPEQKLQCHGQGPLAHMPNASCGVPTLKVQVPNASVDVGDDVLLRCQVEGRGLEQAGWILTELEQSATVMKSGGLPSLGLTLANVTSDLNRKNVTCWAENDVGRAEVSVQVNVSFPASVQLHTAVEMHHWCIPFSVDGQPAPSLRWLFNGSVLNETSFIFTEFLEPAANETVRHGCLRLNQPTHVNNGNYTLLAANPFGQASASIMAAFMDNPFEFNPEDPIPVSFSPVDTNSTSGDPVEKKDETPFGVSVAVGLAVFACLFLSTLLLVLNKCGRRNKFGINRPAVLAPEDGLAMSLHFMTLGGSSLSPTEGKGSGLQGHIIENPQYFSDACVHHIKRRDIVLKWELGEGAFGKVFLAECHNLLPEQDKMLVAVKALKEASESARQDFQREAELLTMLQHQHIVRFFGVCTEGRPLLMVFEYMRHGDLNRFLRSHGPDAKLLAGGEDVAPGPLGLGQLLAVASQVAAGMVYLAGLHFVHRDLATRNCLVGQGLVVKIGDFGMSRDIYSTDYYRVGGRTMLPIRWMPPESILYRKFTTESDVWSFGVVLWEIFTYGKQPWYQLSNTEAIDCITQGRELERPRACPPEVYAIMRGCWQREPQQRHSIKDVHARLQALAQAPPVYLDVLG
Condition Parameters: at 10 µM
Please provide measured residual activity for the entries that follow.
One number for each entry, in %.

Some entries whose results are on file:
Query Smiles | residual activity, %
O=C1NC(=O)C(c2cn(CCCO)c3ncccc23)=C1c1cnccn1 | 64
O=C1Cc2c([nH]c3ccc([N+](=O)[O-])cc23)-c2ccccc2N1 | 63
Nc1nccc(-c2c(-c3ccc(F)cc3)ncn2C2CCNCC2)n1 | 74
N#C/C(=C1/Nc2ccccc2S1)c1ccnc(NCCc2cccnc2)n1 | 11
CC(C)(C)n1nc(Cc2cccc3ccccc23)c2c(N)ncnc21 | 17

Lab note: N#Cc1c(NC(=O)c2cccc3ccccc23)sc2c1CCCC2 gave residual activity of 87
